System: HEK-293 (ATCC CRL-1573) cells
Assay: Inhibition of cell proliferation assay (MTS)
Type: cell-based
Settings: IC50/MDC50 (F. nucleatum); given as x : 1
Where no end group is shown, it is not given here.
experimental-endpoint: Therapeutic Index (proliferation)

Check out these entries, answers already filled in.
>>> value_observed("GIGXFLHSAXXFGXAFVGEIMNS-CONH2 [Magainin-Orn, magainin II analogue, all lysine residues substituted with ornithine]")
"29.4 : 1"
>>> value_observed("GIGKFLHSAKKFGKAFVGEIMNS-NH2 [Magainin II]")
"20.2 : 1"
>>> value_observed("GIGRFLHSARRFGRAFVGEIMNS-NH2 [Magainin-Arg]")
"25.8 : 1"

Let's switch to this substance now.
# Therapeutic Index (proliferation) (substance: GIGKFLHAAKKFAKAFVAEIMNS-NH2 [Ala-Magainin] ) is 14.0 : 1
